- Tested on: Pichia kudriavzevii
- Protocol: Antimicrobial activity against Candida krusei isolate 48 after 48 hrs by microdilution broth method
- Assay type: functional
Measured metric: MIC

# Compound string, Measured metric, Assay result
data = [
    ("Cc1cc(-c2nn(C)c(C)c2/[N+]([O-])=N/C#N)nn1C", "MIC", "> 128 µg/mL"),
    ("Cc1cc(-c2c(/[N+]([O-])=N/C#N)c(C)nn2C)no1", "MIC", "32 µg/mL"),
    ("Cc1cc(-c2nn(C)c(C)c2/[N+]([O-])=N/C#N)no1", "MIC", "128 µg/mL"),
    ("OC(Cn1cncn1)(Cn1cncn1)c1ccc(F)cc1F", "MIC", "32 µg/mL"),
    ("Cc1nn(C)c(-c2cccs2)c1/[N+]([O-])=N/C#N", "MIC", "2 µg/mL"),
    ("CC[C@@H]([C@H](C)O)n1ncn(-c2ccc(N3CCN(c4ccc(OC[C@@H]5CO[C@@](Cn6cncn6)(c6ccc(F)cc6F)C5)cc4)CC3)cc2)c1=O", "MIC", "0.25 µg/mL"),
    ("Cc1c(/[N+]([O-])=N/C(N)=O)c(-c2cccs2)nn1C", "MIC", "> 128 µg/mL"),
    ("Cc1cc(-c2nn(C)c(C)c2/[N+]([O-])=N/C#N)on1", "MIC", "64 µg/mL"),
    ("Cc1c(/[N+]([O-])=N/C#N)c(-c2ccco2)nn1C", "MIC", "2 µg/mL"),
    ("Cc1c(/[N+]([O-])=N/C#N)c(-c2cccs2)nn1C", "MIC", "0.5 µg/mL"),
]

###

MIC values by entry
- Tested on: Candida albicans
- Protocol: Antimicrobial activity against Candida albicans isolate 48 after 48 hrs by microdilution broth method
- Assay type: functional
- Test conditions: isolate 48, 48 h

# Compound string, Readout qualifier, MIC, µg/mL
records = [
    ("Cc1c(/[N+]([O-])=N/C#N)c(-c2cccs2)nn1C", "=", 1),
    ("Cc1cc(-c2nn(C)c(C)c2/[N+]([O-])=N/C#N)no1", ">", 128),
    ("Cc1nn(C)c(-c2cccs2)c1/[N+]([O-])=N/C#N", "=", 4),
    ("C[C@@H](c1ncncc1F)[C@](O)(Cn1cncn1)c1ccc(F)cc1F", "<", 0.008),
    ("Cc1c(/[N+]([O-])=N/C(N)=O)c(-c2cccs2)nn1C", ">", 128),
    ("Cc1c(/[N+]([O-])=N/C#N)c(-c2ccco2)nn1C", "=", 4),
    ("CC[C@@H]([C@H](C)O)n1ncn(-c2ccc(N3CCN(c4ccc(OC[C@@H]5CO[C@@](Cn6cncn6)(c6ccc(F)cc6F)C5)cc4)CC3)cc2)c1=O", "=", 0.008),
    ("C[C@@H]1[C@H](O)[C@@H](C)/C=C/C=C/C=C/C=C/C=C/C=C/C=C/[C@H](O[C@@H]2O[C@H](C)[C@@H](O)[C@H](N)[C@@H]2O)C[C@@H]2O[C@](O)(C[C@@H](O)C[C@@H](O)[C@H](O)CC[C@@H](O)C[C@@H](O)CC(=O)O[C@H]1C)C[C@H](O)[C@H]2C(=O)O", "=", 0.5),
    ("Cc1cc(-c2nn(C)c(C)c2/[N+]([O-])=N/C#N)nn1C", ">", 128),
    ("Cc1nn(C)c(C)c1/[N+]([O-])=N/C#N", "=", 32),
    ("OC(Cn1cncn1)(Cn1cncn1)c1ccc(F)cc1F", "=", 0.12),
    ("Cc1cc(-c2c(/[N+]([O-])=N/C#N)c(C)nn2C)no1", "=", 128),
    ("Cc1ccc(S(=O)(=O)/N=[N+](\\[O-])c2c(-c3cccs3)nn(C)c2C)cc1", ">", 128),
    ("Cc1c(/[N+]([O-])=N/C#N)c(-c2ccccn2)nn1C", "=", 128),
    ("Cc1cc(-c2nn(C)c(C)c2/[N+]([O-])=N/C#N)on1", "=", 128),
]

meta.source: ChEMBL document CHEMBL1777788
